# Test system: HT29 colon
# Assay Comment: NCI-60 one-dose screen, 48 h (100 = growth as untreated, 0 = no growth, -100 = all killed)
# Reported Conditions: 10 µM unless noted
The panel holds about 83,000 compounds, 20% with a hit somewhere; the sample as a whole holds those more often.
// NB: equality with 70% counts as Criterion not met; only growth strictly below is Criterion met

>>> discrete_label("Nc1nonc1-c1nc2ccccc2n1CC(=O)Nc1ccc2c(c1)COC2=O")
"Criterion not met"
>>> discrete_label("O=c1cc(-c2cccnc2)oc2c1ccc1ccccc12")
"Criterion met"
>>> discrete_label("N#Cc1c(N2CCOCC2)nc2sc3cc(Cl)ccc3n2c1=N")
"Criterion not met"
>>> discrete_label("CC(=O)c1cc(C(=O)c2ccc3c(c2)Sc2ccccc2N3)c2c(C)cc(C)cn12")
"Criterion met"
>>> discrete_label("Cc1cc(C)c(OC(=O)CSc2nc3ccccc3c(=O)n2CCc2ccccc2)cc1C")
"Criterion not met"
>>> discrete_label("CCCCN(CCCC)CCCOC(=O)c1ccc(N)cc1")
"Criterion met"
>>> discrete_label("O=C(/C=C/c1ccc(O)c(O)c1)N1CCN(c2ccc(Cl)cc2)CC1")
"Criterion not met"
>>> discrete_label("O=C1c2ccccc2C(=O)c2c1cccc2-n1nnc2ccccc21")
"Criterion not met"
>>> discrete_label("O=C(Nc1ccncc1)C(=O)c1cn(S(=O)(=O)c2cccc(F)c2)c2ccccc12")
"Criterion met"
>>> discrete_label("O=C1Nc2ccccc2C12Nc1cc(Cl)ccc1S2 (configuration not stated)")
"Criterion not met"
>>> discrete_label("NNC(=O)C1CC2c3ccccc3C1c1ccccc12 (configuration not stated)")
"Criterion not met"
>>> discrete_label("Cc1nn(-c2ccccc2)c2nc(Cl)c(/C=C/C(=O)c3ccccc3)c(-c3ccccc3)c12")
"Criterion not met"
>>> discrete_label("CCOc1ccccc1C(=O)OCC(=O)Nc1cccc(S(=O)(=O)N(C)C)c1")
"Criterion not met"
>>> discrete_label("CCCCn1c(Cc2ccc(Cl)cc2)nc2cc(OC)c(OC)cc2c1=O")
"Criterion not met"
>>> discrete_label("CN(C)c1ccc(/C=C(\\C#N)c2nc3ccccc3c(=O)[nH]2)cc1")
"Criterion not met"
>>> discrete_label("Clc1ccc2c(Nc3ccc4oc(NCCN5CCCC5)nc4c3)ccnc2c1")
"Criterion met"
>>> discrete_label("CC(C)c1nc(N(C)S(C)(=O)=O)nc(-c2ccc(F)cc2)c1/C=C/[C@@H](O)C[C@@H](O)CC(=O)O")
"Criterion not met"
>>> discrete_label("COc1ccc(Cn2cc3c(c2-c2ccccc2)CCc2cncnc2-3)cc1")
"Criterion met"
>>> discrete_label("O=C(Nc1cccc(-n2cc(-c3ccncc3)c(-c3ccc(O)c(Cl)c3)n2)c1)Nc1ccc(Cl)c(C(F)(F)F)c1")
"Criterion met"
>>> discrete_label("O=C1OCC/C1=C\\OCCCO/C=C1\\CCOC1=O")
"Criterion not met"
>>> discrete_label("O=C1Cc2cc(CCN3CCN(CCOCCO)CC3)c(Cl)cc2N1Cc1ccc(-c2ccccc2-c2nn[nH]n2)cc1")
"Criterion not met"
>>> discrete_label("S=C(Nc1ccc(C2=NCCN2)cc1)Nc1ccc(C2=NCCN2)cc1")
"Criterion not met"
>>> discrete_label("C[n+]1ccc(C#N)c2ccccc21")
"Criterion met"
>>> discrete_label("COc1ccc2c(c1)C(=O)c1c-2c(OCCN(C)C)nc2cc(OC)ccc12")
"Criterion met"
>>> discrete_label("CCCCCCCCCCCCCCCCCc1nccn1CCO")
"Criterion met"
>>> discrete_label("COc1cc(C2CC(=O)Nc3c2cc(Br)c2ccccc32)cc(Br)c1OC (configuration not stated)")
"Criterion met"
>>> discrete_label("CCS(=O)(=O)OCCCl")
"Criterion not met"
>>> discrete_label("COC1=CC(c2ccc[nH]2)=N/C1=C\\c1[nH]c(C)c(C(=O)CCC(=O)Oc2ccc3c(c2)CCC2C3CC[C@]3(C)C(=O)CC[C@@H]23)c1C (some centres not stated)")
"Criterion met"
>>> discrete_label("Cc1nn(-c2ccccc2)c2ncc3c(c12)C(=O)N(Cc1ccccc1)C3=O")
"Criterion met"
>>> discrete_label("COc1ccc2c(c1)C(=O)/C(=C/c1ccc([N+](=O)[O-])s1)O2")
"Criterion met"
>>> discrete_label("N#CCNc1ccccc1N")
"Criterion not met"
>>> discrete_label("CC(C)COCC(CN(Cc1ccccc1)c1ccccc1)N1CCCC1 (configuration not stated)")
"Criterion met"
>>> discrete_label("CC1=NN(c2ccccc2Cl)C(=O)/C1=C\\c1cn(S(=O)(=O)c2ccc(C)cc2)c2ccccc12")
"Criterion not met"
>>> discrete_label("CCN(CC)CCNc1ccc(Cl)cc1Cl")
"Criterion not met"
>>> discrete_label("CCC(C)(C)C(=O)O[C@H]1C[C@@H](C)C=C2C=C[C@H](C)[C@H](CC[C@@H]3C[C@@H](O)CC(=O)O3)[C@H]21")
"Criterion not met"
>>> discrete_label("CN(CC(=O)N(Cc1ccc(C2CCCCC2)cc1)c1ccc(C(=O)O)cc1)S(=O)(=O)c1c(F)c(F)c(F)c(F)c1F")
"Criterion met"
>>> discrete_label("Cn1cc(-c2csc(-c3c[nH]c4ncccc34)n2)c2cc(F)cnc21")
"Criterion not met"
>>> discrete_label("Nc1nc(Cl)c2[nH]cnc2n1")
"Criterion not met"
>>> discrete_label("CC1CC(C)/C(=N/NC(N)=O)C(C(O)CC2CCC(=O)NC2=O)C1 (configuration not stated)")
"Criterion met"
>>> discrete_label("N#CCCCCCn1c2ccccc2c2c3c(c4c5ccccc5[nH]c4c21)C(=O)N(O)C3=O")
"Criterion met"
